# Lookup of reported pKi keyed by entry
target: Cannabinoid receptor 1 (Homo sapiens, UniProt P21554); assay: biochemical; format: cell-based, HEK293
Sequence (P21554 whole entry): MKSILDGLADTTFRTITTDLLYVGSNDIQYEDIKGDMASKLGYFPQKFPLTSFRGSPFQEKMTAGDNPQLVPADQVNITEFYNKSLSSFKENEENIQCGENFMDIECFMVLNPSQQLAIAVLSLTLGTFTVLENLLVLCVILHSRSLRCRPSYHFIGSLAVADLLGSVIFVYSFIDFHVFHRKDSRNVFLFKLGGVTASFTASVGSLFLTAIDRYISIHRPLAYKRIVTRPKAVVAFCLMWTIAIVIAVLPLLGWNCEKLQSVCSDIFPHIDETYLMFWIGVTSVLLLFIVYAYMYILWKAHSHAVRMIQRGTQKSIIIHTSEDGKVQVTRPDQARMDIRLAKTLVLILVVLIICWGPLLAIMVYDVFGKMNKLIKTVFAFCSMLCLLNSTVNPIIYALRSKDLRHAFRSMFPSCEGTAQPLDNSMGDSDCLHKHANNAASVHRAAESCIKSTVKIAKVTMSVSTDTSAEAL
Keep it numeric: pKi is minus log10 of the concentration in mol/L.

Observed pKi on Cannabinoid receptor 1 (Homo sapiens, UniProt P21554) for `CCCCCn1cc(C(=O)N[C@@H]2C(C)(C)C3CC[C@]2(C)C3)c(=O)c2ccc(Sc3ccccc3)cc21` , please.
8.61

API: value(readout=pKi, system=Cannabinoid receptor 1 (Homo sapiens, UniProt P21554)) for record `COCCn1cc(C(=O)N[C@@H]2C(C)(C)C3CC[C@]2(C)C3)c(=O)c2ccc(Sc3ccccc3)cc21`
7.62

###

target: Cannabinoid receptor 2 (Homo sapiens, UniProt P34972); assay: Displacement of [3H]CP55940 from human recombinant CB2 receptor transfected in HEK cell membranes
Sequence (P34972 whole entry): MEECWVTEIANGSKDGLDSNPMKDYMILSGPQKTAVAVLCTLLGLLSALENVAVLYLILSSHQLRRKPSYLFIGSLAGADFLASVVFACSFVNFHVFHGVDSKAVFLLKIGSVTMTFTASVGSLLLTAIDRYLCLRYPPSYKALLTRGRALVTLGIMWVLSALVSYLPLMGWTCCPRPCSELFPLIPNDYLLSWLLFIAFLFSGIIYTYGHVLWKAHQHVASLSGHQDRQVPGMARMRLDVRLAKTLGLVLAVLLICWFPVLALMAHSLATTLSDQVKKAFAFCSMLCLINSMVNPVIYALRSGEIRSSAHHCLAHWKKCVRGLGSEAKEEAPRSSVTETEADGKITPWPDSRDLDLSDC
measured-parameter: pKi
The quantity pKi is defined as the negative base-10 logarithm of the molar concentration.

Give its pKi value. Item: `CCCCn1cc(C(=O)N[C@@H]2C(C)(C)C3CC[C@]2(C)C3)c(=O)c2ccc(F)cc21`
9.10

Tell me the measured pKi of `Cn1cc(C(=O)N[C@@H]2C(C)(C)C3CC[C@]2(C)C3)c(=O)c2ccc(Sc3ccccc3)cc21` , please.
7.80

Consider the compound shown here: `CN(C)CCn1cc(C(=O)N[C@@H]2C(C)(C)C3CC[C@]2(C)C3)c(=O)c2ccc(Sc3ccccc3)cc21` What is its recorded pKi?
8.89

###

target: CYP3A4 (Homo sapiens, UniProt P08684); assay: Metabolic stability assessed as human recombinant CYP3A4-mediated drug metabolism by measuring compound remaining after 1 hr; assay type: ADME; conditions: read-out: Drug metabolism
Sequence (P08684 whole entry): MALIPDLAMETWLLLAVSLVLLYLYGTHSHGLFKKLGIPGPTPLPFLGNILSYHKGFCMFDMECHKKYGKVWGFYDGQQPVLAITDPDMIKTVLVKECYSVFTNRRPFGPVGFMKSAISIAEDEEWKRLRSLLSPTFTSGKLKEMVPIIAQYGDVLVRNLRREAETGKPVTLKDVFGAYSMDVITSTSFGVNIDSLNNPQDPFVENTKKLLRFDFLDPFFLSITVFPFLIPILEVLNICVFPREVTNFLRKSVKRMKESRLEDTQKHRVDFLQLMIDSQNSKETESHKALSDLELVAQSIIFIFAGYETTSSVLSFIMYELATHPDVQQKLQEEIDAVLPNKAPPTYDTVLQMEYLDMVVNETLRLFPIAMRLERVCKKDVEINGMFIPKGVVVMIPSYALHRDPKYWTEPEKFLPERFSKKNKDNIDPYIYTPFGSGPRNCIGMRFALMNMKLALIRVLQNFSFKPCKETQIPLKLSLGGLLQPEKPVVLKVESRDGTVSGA
measured-parameter: remaining at 1 h (%)
Give the value, in units of %, as a plain number.

CCCCCn1cc(C(=O)NCc2ccc(Cl)c(Cl)c2)c(=O)c2ccc(Sc3ccccc3)cc21 :: 25

For the next question, use this molecule.
What value of remaining at 1 h has been reported for the following molecule? `CCn1cc(C(=O)N[C@@H]2C(C)(C)C3CC[C@]2(C)C3)c(=O)c2ccc(F)cc21`
1

###

Recorded Papp A→B at 2 h, 10 µM values for a group of compounds are listed next.
test system: MDR1; assay: Apparent permeability across apical to basolateral side in human MDR1 transfected MDCK2 cells at 10 uM after 2 hrs; assay type: ADME, cell-based, Canis lupus familiaris, MDCK-II; conditions: dog, MDCK-MDR1
# output: bare number, implied unit ×10⁻⁶ cm/s

CCn1cc(C(=O)N[C@@H]2C(C)(C)C3CC[C@]2(C)C3)c(=O)c2ccc(F)cc21 :: 0.17

# context switch: different compound, same Papp A→B at 2 h, 10 µM
What reported Papp A→B at 2 h, 10 µM corresponds to `CCCCCn1cc(C(=O)NCc2ccc(Cl)c(Cl)c2)c(=O)c2ccc(Sc3ccccc3)cc21` on MDR1?
0.14

###

species: Homo sapiens; assay: Selectivity index, ratio of Ki for human recombinant CB1 receptor to Ki for human recombinant CB2 receptor
Rule: true (1) for Ratio Ki not less than 5, false (0) for anything less.

Example results:
C=Cn1cc(C(=O)N[C@@H]2C(C)(C)C3CC[C@]2(C)C3)c(=O)c2ccc(F)cc21 :: true (1)
COCCn1cc(C(=O)N[C@@H]2C(C)(C)C3CC[C@]2(C)C3)c(=O)c2ccc(Sc3ccccc3)cc21 :: true (1)
CCCCCn1cc(C(=O)NC23CC4CC(CC(C4)C2)C3)c(=O)c2ccc(F)cc21 :: true (1)
COCCn1cc(C(=O)N[C@@H]2C(C)(C)C3CC[C@]2(C)C3)c(=O)c2ccc(F)cc21 :: true (1)
CCCCn1cc(C(=O)N[C@@H]2C(C)(C)C3CC[C@]2(C)C3)c(=O)c2ccc(F)cc21 :: true (1)
CCCCCn1cc(C(=O)NCCN2CCOCC2)c(=O)c2ccc(Sc3ccccc3)cc21 :: false (0)
CCCCCn1cc(C(=O)NC(CC)CO)c(=O)c2ccc(Sc3ccccc3)cc21 (centres undefined) :: false (0)

Is the recorded value of Ratio Ki equal to or greater than 5 for this compound? `CCn1cc(C(=O)N[C@@H]2C(C)(C)C3CC[C@]2(C)C3)c(=O)c2ccc(F)cc21`
true (1)
